Where these numbers come from: patent US11639352B2

# assayed-system: human TLR8 (Homo sapiens, UniProt Q9NR97)
# Sequence (Q9NR97 27-1041): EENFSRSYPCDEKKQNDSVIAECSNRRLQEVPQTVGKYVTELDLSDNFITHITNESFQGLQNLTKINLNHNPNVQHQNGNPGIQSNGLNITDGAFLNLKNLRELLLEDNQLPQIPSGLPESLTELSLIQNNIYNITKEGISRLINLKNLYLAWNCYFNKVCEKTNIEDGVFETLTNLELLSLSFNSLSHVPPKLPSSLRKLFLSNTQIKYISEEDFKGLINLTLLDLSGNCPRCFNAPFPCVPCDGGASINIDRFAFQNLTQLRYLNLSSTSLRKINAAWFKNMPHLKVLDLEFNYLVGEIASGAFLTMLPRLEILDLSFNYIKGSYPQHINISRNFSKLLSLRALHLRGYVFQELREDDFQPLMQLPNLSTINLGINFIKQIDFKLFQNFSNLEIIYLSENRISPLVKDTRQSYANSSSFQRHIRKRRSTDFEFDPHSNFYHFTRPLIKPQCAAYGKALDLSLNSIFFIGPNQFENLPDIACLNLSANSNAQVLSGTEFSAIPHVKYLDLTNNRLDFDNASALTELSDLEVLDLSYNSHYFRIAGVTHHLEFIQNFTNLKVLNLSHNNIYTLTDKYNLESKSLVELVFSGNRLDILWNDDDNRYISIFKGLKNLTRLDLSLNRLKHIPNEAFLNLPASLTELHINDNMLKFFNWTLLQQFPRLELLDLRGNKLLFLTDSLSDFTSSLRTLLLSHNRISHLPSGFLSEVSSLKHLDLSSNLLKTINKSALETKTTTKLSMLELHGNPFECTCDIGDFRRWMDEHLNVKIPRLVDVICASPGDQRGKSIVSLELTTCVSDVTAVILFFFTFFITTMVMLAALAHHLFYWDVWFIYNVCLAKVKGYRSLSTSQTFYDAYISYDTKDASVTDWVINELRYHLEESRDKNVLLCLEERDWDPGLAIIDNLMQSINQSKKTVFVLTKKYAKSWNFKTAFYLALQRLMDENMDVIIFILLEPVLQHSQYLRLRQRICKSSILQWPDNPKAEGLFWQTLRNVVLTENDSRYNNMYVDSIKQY
# experiment-notes: HEK293-Blue-hTLR-8 cells assay (SEAP reporter, R848 stimulation)
# Format: cell-based
# measurement-parameters: HEK293-Blue-hTLR8 cells, R848 ligand, 20 hrs incubation, antagonist
pIC50: −log10 of the molar value.
reported-property: pIC50

structure-as-smiles | limit-sign | value
C[C@@H]1CN(c2ccc(C#N)c3ncsc23)C[C@H](CN2[C@@H]3CC[C@H]2C[C@H](N)C3)O1 | = | 8.10
C[C@@H]1CN(c2ccc(C#N)c3ncsc23)C[C@H](CN2CC3(CCCNC3)C2)O1 | = | 7.85
C[C@@H]1CN(c2ccc(C#N)c3ncsc23)C[C@H](CN2CCC3(CCCN(C)C3)CC2)O1 | > | 8.52
C[C@@H]1CN(c2ccc(C#N)c3ncsc23)C[C@H](CN2[C@@H]3CC[C@H]2C[C@@H](N)C3)O1 | > | 8.52
C[C@@H]1CN(c2ccc(C#N)c3ncsc23)C[C@H](C(=O)NC2CCN(C)CC2)O1 | > | 8.52
C[C@@H]1CN(c2ccc(C#N)c3ncsc23)C[C@H](CN2CCC(N)CC2)O1 | = | 8.30
C[C@@H]1CN(c2ccc(C#N)c3ncsc23)C[C@H](CN2CCC3(CCNCC3)CC2)O1 | = | 6.97
C[C@@H]1CN(c2ccc(C#N)c3ncsc23)C[C@H](CN2CCC3(CCCNC3)CC2)O1 | = | 7.92

====

# pIC50 values compiled below
# assayed-system: human TLR7 (Homo sapiens)
# Sequence (Q9NYK1 27-1049): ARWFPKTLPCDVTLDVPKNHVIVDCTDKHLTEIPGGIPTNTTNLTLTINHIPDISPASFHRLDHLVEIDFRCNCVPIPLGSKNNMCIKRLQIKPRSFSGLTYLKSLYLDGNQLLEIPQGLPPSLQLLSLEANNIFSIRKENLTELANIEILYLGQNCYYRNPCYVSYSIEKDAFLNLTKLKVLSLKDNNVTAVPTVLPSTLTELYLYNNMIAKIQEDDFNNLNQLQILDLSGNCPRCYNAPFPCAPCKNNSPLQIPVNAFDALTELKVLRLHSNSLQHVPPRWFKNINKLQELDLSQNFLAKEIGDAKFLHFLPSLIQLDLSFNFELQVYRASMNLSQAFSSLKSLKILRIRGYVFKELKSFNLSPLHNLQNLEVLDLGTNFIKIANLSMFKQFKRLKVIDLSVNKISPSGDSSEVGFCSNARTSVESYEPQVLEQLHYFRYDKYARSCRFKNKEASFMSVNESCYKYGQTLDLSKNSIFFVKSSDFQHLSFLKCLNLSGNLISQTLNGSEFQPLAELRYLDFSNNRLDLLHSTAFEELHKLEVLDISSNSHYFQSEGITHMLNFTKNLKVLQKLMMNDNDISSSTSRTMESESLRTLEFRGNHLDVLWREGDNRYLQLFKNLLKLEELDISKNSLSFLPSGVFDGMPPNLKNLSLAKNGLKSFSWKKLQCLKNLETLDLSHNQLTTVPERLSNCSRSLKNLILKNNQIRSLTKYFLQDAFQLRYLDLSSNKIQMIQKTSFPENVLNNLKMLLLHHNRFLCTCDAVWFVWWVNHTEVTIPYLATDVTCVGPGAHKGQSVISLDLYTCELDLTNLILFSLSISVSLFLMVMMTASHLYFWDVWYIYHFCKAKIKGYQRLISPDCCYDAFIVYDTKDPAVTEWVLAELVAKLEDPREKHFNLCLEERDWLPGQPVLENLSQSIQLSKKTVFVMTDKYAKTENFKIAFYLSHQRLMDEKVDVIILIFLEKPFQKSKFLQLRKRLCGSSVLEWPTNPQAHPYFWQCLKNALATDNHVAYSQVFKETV
# experiment-notes: HEK293-Blue-hTLR-7 cells assay (SEAP reporter, R848 stimulation)
# measurement-parameters: HEK293-Blue-hTLR7 cells, R848 ligand, 20 hrs incubation, antagonist
pIC50: −log10 of the molar value.

molecule | pIC50
C[C@@H]1CN(c2ccc(C#N)c3ncsc23)C[C@H](CN2CC3(CCCNC3)C2)O1 [Example 4] | 7.92
C[C@@H]1CN(c2ccc(C#N)c3ncsc23)C[C@H](CN2CCC(N3CCCCC3)CC2)O1 [Example 7] | 7.89
C[C@@H]1CN(c2ccc(C#N)c3ncsc23)C[C@H](CN2[C@@H]3CC[C@H]2C[C@H](N)C3)O1 [Example 9] | 7.35
C[C@@H]1CN(c2ccc(C#N)c3ncsc23)C[C@H](CN2[C@@H]3CC[C@H]2C[C@@H](N)C3)O1 [Example 8] | 7.80
